# test: Kinetic study: plasma kinetics of TMC278 after single IM or SC injection of a nanosuspension
# Format: in vivo, male beagle dogs
# conditions-used: male, beagle, dog, plasma, intramuscular, 5 mg/kg, plasma concentration of TMC278, single IM 5 mg/kg TMC278 nanosuspension, mean of 2 dogs, 1368 h (d57)
readout-kind: concentration at 1368 h (ng/mL)
The answer is to be given in ng/mL; state only the numeric part.

// sample Cc1cc(C=CC#N)cc(C)c1Nc1ccnc(Nc2ccc(C#N)cc2)n1 , its concentration at 1368 h was 3

----------
# test: Kinetic study: plasma kinetics of TMC278 after single IM or SC injection of a nanosuspension
# Format: in vivo, male beagle dogs
# conditions-used: male, beagle, dog, plasma, intramuscular, 5 mg/kg, plasma concentration of TMC278, single IM 5 mg/kg TMC278 nanosuspension, dog 18186, 0 h (d0, predose)
readout-kind: concentration at 0 h

Per the records, this compound ( Cc1cc(C=CC#N)cc(C)c1Nc1ccnc(Nc2ccc(C#N)cc2)n1 [TMC278] ) has concentration at 0 h equal to < 1 ng/mL

----------
# test: Kinetic study: plasma kinetics of TMC278 after single IM or SC injection of a nanosuspension
# Type: in vivo, male beagle dogs
# conditions-used: male, beagle, dog, plasma, intramuscular, 5 mg/kg, plasma concentration of TMC278, single IM 5 mg/kg TMC278 nanosuspension, mean of 2 dogs, 696 h (d29)
readout-kind: concentration at 696 h
Write the numeric value and append its unit.

// concentration at 696 h value for Cc1cc(C=CC#N)cc(C)c1Nc1ccnc(Nc2ccc(C#N)cc2)n1 : 11.3 ng/mL

----------
# test: Kinetic study: plasma kinetics of TMC278 after single IM or SC injection of a nanosuspension
# Type: in vivo, male beagle dogs
# conditions-used: male, beagle, dog, plasma, intramuscular, 5 mg/kg, plasma concentration of TMC278, single IM 5 mg/kg TMC278 nanosuspension, dog 18186, 1368 h (d57)
readout-kind: concentration at 1368 h (ng/mL)
Write the value in ng/mL as a bare number.

Lab note: Cc1cc(C=CC#N)cc(C)c1Nc1ccnc(Nc2ccc(C#N)cc2)n1 [TMC278] gave concentration at 1368 h of 3

----------
# test: Kinetic study: plasma kinetics of TMC278 after single IM or SC injection of a nanosuspension
# Type: in vivo, male beagle dogs
# conditions-used: male, beagle, dog, plasma, sc, 5 mg/kg, plasma concentration of TMC278, single SC 5 mg/kg TMC278 nanosuspension, dog 19349, 2040 h (d85)
readout-kind: concentration at 2040 h (ng/mL)
Note: unit ng/mL is implicit; provide only the numeric part.

Field concentration at 2040 h (entry Cc1cc(C=CC#N)cc(C)c1Nc1ccnc(Nc2ccc(C#N)cc2)n1 ) reads 2.82

----------
# test: Kinetic study: plasma kinetics of TMC278 after single IM or SC injection of a nanosuspension
# Type: in vivo, male beagle dogs
# conditions-used: male, beagle, dog, plasma, intramuscular, 5 mg/kg, plasma concentration of TMC278, single IM 5 mg/kg TMC278 nanosuspension, dog 18186, 480 h (d20)
readout-kind: concentration at 480 h
Answer by giving the amount and then stating its unit.

Value of measured concentration at 480 h for the entry Cc1cc(C=CC#N)cc(C)c1Nc1ccnc(Nc2ccc(C#N)cc2)n1 : 16.6 ng/mL

----------
# test: Kinetic study: plasma kinetics of TMC278 after single IM or SC injection of a nanosuspension
# Type: in vivo, male beagle dogs
# conditions-used: male, beagle, dog, plasma, sc, 5 mg/kg, plasma concentration of TMC278, single SC 5 mg/kg TMC278 nanosuspension, dog 19129, 144 h (d6)
readout-kind: concentration at 144 h (ng/mL)
State just the number; it will be interpreted in ng/mL.

So for Cc1cc(C=CC#N)cc(C)c1Nc1ccnc(Nc2ccc(C#N)cc2)n1 , the logged concentration at 144 h turned out to be 18.9

----------
# test: Kinetic study: plasma kinetics of TMC278 after single IM or SC injection of a nanosuspension
# Format: in vivo, male beagle dogs
# conditions-used: male, beagle, dog, plasma, sc, 5 mg/kg, plasma concentration of TMC278, single SC 5 mg/kg TMC278 nanosuspension, dog 19129, 1872 h (d78)
readout-kind: concentration at 1872 h (ng/mL)
Please give a number only; it is taken to be in ng/mL.

Entry Cc1cc(C=CC#N)cc(C)c1Nc1ccnc(Nc2ccc(C#N)cc2)n1 , concentration at 1872 h reported as 3.66

----------
# test: Kinetic study: plasma kinetics of TMC278 after single IM or SC injection of a nanosuspension
# Assay type: in vivo, male beagle dogs
# conditions-used: male, beagle, dog, plasma, intramuscular, 5 mg/kg, plasma concentration of TMC278, single IM 5 mg/kg TMC278 nanosuspension, dog 17264, 1368 h (d57)
readout-kind: concentration at 1368 h (ng/mL)
Lab book: enter the figure in ng/mL, no units written.

Noted for Cc1cc(C=CC#N)cc(C)c1Nc1ccnc(Nc2ccc(C#N)cc2)n1 [TMC278] : its concentration at 1368 h reads 3

----------
# test: Kinetic study: plasma kinetics of TMC278 after single IM or SC injection of a nanosuspension
# Assay type: in vivo, male beagle dogs
# conditions-used: male, beagle, dog, plasma, sc, 5 mg/kg, plasma concentration of TMC278, single SC 5 mg/kg TMC278 nanosuspension, dog 19129, 24 h (d1)
readout-kind: concentration at 24 h (ng/mL)
The reply should contain only the number, in ng/mL.

Per the record, Cc1cc(C=CC#N)cc(C)c1Nc1ccnc(Nc2ccc(C#N)cc2)n1 [TMC278] has concentration at 24 h of 15.7

----------
# test: Kinetic study: plasma kinetics of TMC278 after single IM or SC injection of a nanosuspension
# Assay type: in vivo, male beagle dogs
# conditions-used: male, beagle, dog, plasma, sc, 5 mg/kg, plasma concentration of TMC278, single SC 5 mg/kg TMC278 nanosuspension, dog 19129, 1704 h (d71)
readout-kind: concentration at 1704 h (ng/mL)
Record the value in ng/mL, omitting the unit from your answer.

The recorded concentration at 1704 h for Cc1cc(C=CC#N)cc(C)c1Nc1ccnc(Nc2ccc(C#N)cc2)n1 [TMC278] is 3.96

----------
# test: Kinetic study: plasma kinetics of TMC278 after single IM or SC injection of a nanosuspension
# Assay type: in vivo, male beagle dogs
# conditions-used: male, beagle, dog, plasma, sc, 5 mg/kg, single SC 5 mg/kg TMC278 nanosuspension, dog 19349; read-out: AUC0-2208 h
readout-kind: AUC(0-t) (ng·h/mL)
Field format: number, assumed ng·h/mL, no unit text.

Input Cc1cc(C=CC#N)cc(C)c1Nc1ccnc(Nc2ccc(C#N)cc2)n1 . Output AUC(0-t): 22400

----------
# test: Kinetic study: plasma kinetics of TMC278 after single IM or SC injection of a nanosuspension
# Format: in vivo, male beagle dogs
# conditions-used: male, beagle, dog, plasma, sc, 5 mg/kg, single SC 5 mg/kg TMC278 nanosuspension, dog 19349; read-out: AUC0-696 h
readout-kind: AUC(0-t) (ng·h/mL)
# value in ng·h/mL; strip the unit string

Per the records, this compound ( Cc1cc(C=CC#N)cc(C)c1Nc1ccnc(Nc2ccc(C#N)cc2)n1 ) has AUC(0-t) equal to 16700

----------
# test: Kinetic study: plasma kinetics of TMC278 after single IM or SC injection of a nanosuspension
# Type: in vivo, male beagle dogs
# conditions-used: male, beagle, dog, plasma, sc, 5 mg/kg, plasma concentration of TMC278, single SC 5 mg/kg TMC278 nanosuspension, mean of 2 dogs, 1200 h (d50)
readout-kind: concentration at 1200 h (ng/mL)
Please reply with the bare figure in ng/mL and do not write the unit itself.

The compound identified as Cc1cc(C=CC#N)cc(C)c1Nc1ccnc(Nc2ccc(C#N)cc2)n1 registered its concentration at 1200 h at 4.89

----------
# test: Kinetic study: plasma kinetics of TMC278 after single IM or SC injection of a nanosuspension
# Assay type: in vivo, male beagle dogs
# conditions-used: male, beagle, dog, plasma, sc, 5 mg/kg, plasma concentration of TMC278, single SC 5 mg/kg TMC278 nanosuspension, dog 19129, 2040 h (d85)
readout-kind: concentration at 2040 h (ng/mL)
# unit: ng/mL | format: bare number

The molecule Cc1cc(C=CC#N)cc(C)c1Nc1ccnc(Nc2ccc(C#N)cc2)n1 showed concentration at 2040 h equal to 8.6

----------
# test: Kinetic study: plasma kinetics of TMC278 after single IM or SC injection of a nanosuspension;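 further: healthy male beagle dogs injected in both biceps femoris muscles (IM) or both thoracal sides (SC), total volume 0.2 mL/kg, drug measured in plasma from blood samples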
# Format: in vivo, male beagle dogs
# conditions-used: male, beagle, dog, plasma, sc, 5 mg/kg, single SC 5 mg/kg TMC278 nanosuspension, dog 19129; read-out: AUC0-696 h
readout-kind: AUC(0-t) (ng·h/mL)
Give just the numeric value; ng·h/mL need not be written.

The recorded AUC(0-t) for Cc1cc(C=CC#N)cc(C)c1Nc1ccnc(Nc2ccc(C#N)cc2)n1 [TMC278] is 15900
